- assay.summary: Toxicity liver stage against HepG2, at 10uM
- Assay type: cell-based
- Set-up: test concentration 10 uM, cell line HepG2-A16-CD81EGFP
- condition.parameters: human, HepG2-A16-CD81EGFP cells; read-out: INHIBITION
Please provide measured cytotoxicity at 10 µM for the entries that follow.
One number for each entry, in %.

Reference set, count: 2
{"columns": ["compound", "unit.tag", "recorded.value"],
 "data": [
  ["COc1ccc(S(=O)(=O)NCC(O)c2sccc2C)cc1C (centres undefined)", "%", 1.69],
  ["CC(C)CNC(=O)CNC(=O)NC(C)COc1ccccc1F (centres undefined)", "%", -0.956]
]}

Answer for every listed entry: what is its cytotoxicity at 10 µM? The entries follow.
1. CC(=O)c1nn(-c2ccccc2)c(C)c1C(C)=O
2. CN(CC1(CO)CCOCC1)[C@@H]1c2ccccc2C2(CCNCC2)[C@H]1O
3. Cc1ccc(N2CCCC(NCC(=O)NC3CCOCC3)C2)nn1 (centres undefined)
4. COc1ccc(C(C)Nc2cnn(C)c(=O)c2Cl)cc1OC (centres undefined)
5. Cc1nnc(CN(Cc2ccc3c(c2)OCO3)C2CCCCC2)o1
6. O=C(c1ccoc1)N1CCc2c(COCC3CC3)cncc2C1
7. Cc1nn(Cc2ccc(C(=O)NCCCN3CCOCC3)o2)c(C)c1Cl

A)
[2.27, -6.87, 3.08, 18.7, -6.14, -76.9, -5.47]

---

- assay.summary: Toxicity liver stage against HepG2, at 10uM
- Type: cell-based
- Set-up: test concentration 10 uM, cell line HepG2-A16-CD81EGFP
- condition.parameters: human, HepG2-A16-CD81EGFP cells; read-out: INHIBITION
endpoint.label: cytotoxicity at 10 µM (%)
Numbers only, in %.

Check out these entries, answers already filled in.
{"columns": ["compound", "unit.tag", "cytotoxicity at 10 µM"],
 "data": [
  ["Oc1cc(C2CCCCN2CC2CC2)nc(-c2ccncc2)n1 (centres undefined)", "%", 9.77],
  ["CN(C)CC(=O)N1CCO[C@@H]2CC(COCc3ccncc3)C[C@H]21 (some centres undefined)", "%", -108],
  ["Cn1nc(CN2CCCC2)c2c1CN(c1cnccn1)CC2", "%", -95.3],
  ["CN(C(=O)c1ccc[nH]1)C1CCC(NC(=O)OC(C)(C)C)CC1 (centres undefined)", "%", -11.9],
  ["CCOCCn1c(=O)[nH]c2cc(C(=O)N(C)Cc3ccno3)ccc21", "%", -1.79],
  ["CS(=O)(=O)N1CCC2(CC1)c1ccccc1[C@@H](N1CCSCC1)[C@@H]2O", "%", -9.71],
  ["O=C1C(NCc2nnc3n2CCCC3)CCCN1c1ccccc1 (centres undefined)", "%", -9.69],
  ["Cc1nccc(-c2cccc(NCc3nc(C(C)C)no3)c2)n1", "%", 5.75]
]}

For every item below, please supply its cytotoxicity at 10 µM.
1. CC(NC(=O)NCCCN(C(C)C)S(C)(=O)=O)c1ccncc1 (centres undefined)
2. CCC(CC)N(Cc1cc(=O)n(C)c(=O)n1C)C1CC1
3. CC1(C)CC(N(Cc2ccccc2)Cc2c[nH]cn2)CC(C)(C)N1
4. O=C(c1cccnc1-n1cncn1)N1CCN(C2CCCC2)CC1
5. COc1cc(C)c(CN2CCc3nc4ccsc4c(=O)n3CC2)cc1C
6. Cc1csc(CNC(=O)N2CCCC(c3nncn3C)C2)n1 (centres undefined)

A)
1: -14.9; 2: 15.8; 3: 5.28; 4: 8.7; 5: -15.7; 6: -18.3
